- System: luciferase gene expression in HEK 293 cells in response to Comp. 004
- protocolDetails: Screen of riboswitch constructs with 12C6-1 variant aptamers (libraries N1-N5) against Comp. 004, luciferase in HEK 293 cells
- Assay type: cell-based, human
- conditionsUsed: library N5 variant aptamers (L5, X16-X21 randomized) of 12C6-1 in riboswitch constructs; in response to Comp. 004 treatment; HEK 293 cells
- Source text: Cloning of riboswitch constructs containing 12C6-1 variant aptamer sequences: 12C6-1 aptamer sequence was used as template, and nucleobases were randomized at certain position in the sequence. […]
// classify: if (Fold (induction of luciferase gene expression) < 900 fold) met else not met

substance | assignedClass
N5_1D1 (CTGGGGAGTCCT; chemistry not given here) | met
N5_6D12 (CTGGGGAGTCCT; chemistry not given here) | not met
N5_3A3 (CTGGGGAGTCCT; chemistry not given here) | not met
N5_7E6 (DNA CTGGGGAGTCCT; chemistry not given here) | not met
N5_1D12 (CTGGGGAGTCCT; chemistry not given here) | met
N5_7H12 (DNA CTGGGGAGTCCT; chemistry not given here) | not met
N5_11D10 (CTGGGGAGTCCT; chemistry not given here) | not met
N5_7A9 (CTGGGGAGTCCT; chemistry not given here) | met
N5_7G1 (DNA CTGGGGAGTCCT; chemistry not given here) | not met

###

- System: luciferase gene expression in HEK 293 cells in response to Comp. 004
- protocolDetails: Screen of riboswitch constructs with 12C6-1 variant aptamers (libraries N1-N5) against Comp. 004, luciferase in HEK 293 cells
- Type: cell-based, human
- conditionsUsed: library N5 variant aptamers (L5, X16-X21 randomized) of 12C6-1 in riboswitch constructs; in response to Comp. 004 treatment; HEK 293 cells
// classify: if (Fold (induction of luciferase gene expression) < 800 fold) met else not met

substance | assayedSystem | assignedClass
N5_1H6 (CTGGGGAGTCCT; chemistry not given here) | luciferase gene expression in HEK 293 cells in response to Comp. 004 | met
N5_7H10 (DNA CTGGGGAGTCCT; chemistry not given here) | luciferase gene expression in HEK 293 cells in response to Comp. 004 | met
N5_6A3 (CTGGGGAGTCCT; chemistry not given here) | luciferase gene expression in HEK 293 cells in response to Comp. 004 | met
N5_8H7 (DNA CTGGGGAGTCCT; chemistry not given here) | luciferase gene expression in HEK 293 cells in response to Comp. 004 | not met
N5_7G9 (DNA CTGGGGAGTCCT; chemistry not given here) | luciferase gene expression in HEK 293 cells in response to Comp. 004 | not met
N5_8F1 (DNA CTGGGGAGTCCT; chemistry not given here) | luciferase gene expression in HEK 293 cells in response to Comp. 004 | not met
N5_1F9 (CTGGGGAGTCCT; chemistry not given here) | luciferase gene expression in HEK 293 cells in response to Comp. 004 | met
N5_14G11 (CTGGGGAGTCCT; chemistry not given here) | luciferase gene expression in HEK 293 cells in response to Comp. 004 | not met
N5_1C9 (CTGGGGAGTCCT; chemistry not given here) | luciferase gene expression in HEK 293 cells in response to Comp. 004 | not met

###

- Test system: luciferase gene expression in HEK 293 cells in response to Comp. 004
- protocolDetails: Screen of riboswitch constructs with 12C6-1 variant aptamers (libraries N1-N5) against Comp. 004, luciferase in HEK 293 cells
- Format: cell-based, human
- conditionsUsed: library N5 variant aptamers (L5, X16-X21 randomized) of 12C6-1 in riboswitch constructs; in response to Comp. 004 treatment; HEK 293 cells
Label rule met when Fold (induction of luciferase gene expression) >= 600 fold; otherwise rule not met.

substance | assignedClass
N5_7C7 (DNA CTGGGGAGTCCT; chemistry not given here) | rule not met
N5_1H8 (CTGGGGAGTCCT; chemistry not given here) | rule met
N5_1A5 (CTGGGGAGTCCT; chemistry not given here) | rule not met
N5_12F11 (CTGGGGAGTCCT; chemistry not given here) | rule met
N5_7A11 (CTGGGGAGTCCT; chemistry not given here) | rule met
N5_1F6 (CTGGGGAGTCCT; chemistry not given here) | rule not met
N5_5B6 (CTGGGGAGTCCT; chemistry not given here) | rule met
N5_1B2 (CTGGGGAGTCCT; chemistry not given here) | rule met
N5_2B5 (CTGGGGAGTCCT; chemistry not given here) | rule met
N5_3D3 (CTGGGGAGTCCT; chemistry not given here) | rule met

###

- System: N5-12G6 riboswitch
- protocolDetails: Firefly luciferase assay, N5-12G6 riboswitch in HEK293 cells
- conditionsUsed: Homo sapiens, HEK293, read-out: Fold induction 2 μM (HEK), 12G6 riboswitch, luciferase, HEK293, 2 μM

compound | fold induction at 2 µM
C[C@H]1CN(c2c(F)cncc2NCc2ccc3nccnc3c2)CCN1 [compound 103] | 23.3
C[C@@H]1CNCCN1c1ccncc1NCc1ccc2nccnc2c1 [compound 020] | 31.2
Fc1cc2nccnc2cc1CNc1cnccc1N1CCCNCC1 [compound 090] | 15
Cc1cncc(NCc2ccc3nccnc3c2)c1N1CCN[C@@H](C)C1 [compound 104] | 33.3
Clc1cc(CNc2cnccc2OC2CNC2)cc2nccnc12 [compound 064] | 15
Cc1cc2nccnc2cc1CNc1cnccc1N1CCNCC1 [compound 069] | 28.3
Fc1cc2nccnc2cc1CNc1cncc(Cl)c1O[C@@H]1CCNC1 [compound 120] | 24.7
Fc1nccc(N2CCNCC2)c1NCc1ccc2nccnc2c1 [compound 051] | 2.7
Clc1cncc(NCc2ccc3nccnc3c2)c1N1CCNCC1 [compound 019] | 60.2
C[C@H]1CN(c2c(Cl)cncc2NCc2ccc3nccnc3c2)CCN1 [compound 025] | 42.6
Cc1cncc(NCc2cc3nccnc3cc2F)c1N1CCNCC1 [compound 086] | 17.3
FC(F)c1cncc(NCc2ccc3nccnc3c2)c1N1CCNCC1 [compound 076] | 117
Clc1cc2nccnc2cc1CNc1cnccc1N1C[C@H]2C[C@@H]1CN2 [compound 098] | 4.5
Fc1cc(CNc2cncc(Cl)c2O[C@@H]2CCNC2)cc2nccnc12 [compound 119] | 32.5
c1cc(OC2CCNCC2)c(NCc2ccc3nccnc3c2)cn1 [compound 045] | 12
Cc1cc2nccnc2cc1CNc1cnccc1O[C@@H]1CCNC1 [compound 123] | 83.9
Clc1cc2nccnc2cc1CNc1cncc(Cl)c1N1CCNCC1 [compound 054] | 10.6
C[C@H]1CN(c2ccncc2NCc2cc3nccnc3cc2F)CCN1 [compound 102] | 13.6
Fc1cncc(NCc2ccc3nccnc3c2F)c1N1CCNCC1 [compound 079] | 4.4
FC(F)(F)c1cc(CNc2cnccc2O[C@@H]2CCNC2)cc2nccnc12 [compound 124] | 3

###

- Tested on: luciferase gene expression in HEK 293 cells in response to Comp. 004
- protocolDetails: Screen of riboswitch constructs with 12C6-1 variant aptamers (libraries N1-N5) against Comp. 004, luciferase in HEK 293 cells
- Assay type: cell-based, human
- conditionsUsed: library N2 variant aptamers (J2-3, P3-J3-3a, J3a-2 randomized) of 12C6-1 in riboswitch constructs; in response to Comp. 004; HEK 293 cells
assayMetric: Fold (induction of luciferase gene expression)

substance | assayResult
N2_2F12 (DNA CTGGGGAGTCCTTCATGC; chemistry not given here) | 1.0 fold
N2_2C12 (CTGGGGAGTCCTTCATGC; chemistry not given here) | 1.1 fold
N2_2H1 (CTGGGGAGTCCTTCATGC; chemistry not given here) | 1.1 fold
N2_2A10 (CTGGGGAGTCCTTCATGC; chemistry not given here) | 1.1 fold
N2_2F3 (DNA CTGGGGAGTCCTTCATGC; chemistry not given here) | 0.9 fold
N2_2D5 (DNA CTGGGGAGTCCTTCATGC; chemistry not given here) | 0.6 fold
N2_2E4 (DNA CTGGGGAGTCCTTCATGC; chemistry not given here) | 0.7 fold
N2_2H10 (CTGGGGAGTCCTTCATGC; chemistry not given here) | 1.0 fold
N2_2C1 (CTGGGGAGTCCTTCATGC; chemistry not given here) | 1.1 fold
N2_2A11 (CTGGGGAGTCCTTCATGC; chemistry not given here) | 1.1 fold
N2_2F1 (DNA CTGGGGAGTCCTTCATGC; chemistry not given here) | 1.1 fold
N2_2C2 (CTGGGGAGTCCTTCATGC; chemistry not given here) | 0.8 fold
N2_2A8 (CTGGGGAGTCCTTCATGC; chemistry not given here) | 1.0 fold
N2_2H6 (CTGGGGAGTCCTTCATGC; chemistry not given here) | 1.0 fold
N2_2E3 (DNA CTGGGGAGTCCTTCATGC; chemistry not given here) | 1.3 fold
N2_2B3 (CTGGGGAGTCCTTCATGC; chemistry not given here) | 1.2 fold
N2_2E2 (DNA CTGGGGAGTCCTTCATGC; chemistry not given here) | 1.1 fold
N2_2C10 (CTGGGGAGTCCTTCATGC; chemistry not given here) | 1.2 fold
N2_2B4 (CTGGGGAGTCCTTCATGC; chemistry not given here) | 0.8 fold
